- METHOD NOTES: Selectivity index, ratio of IC50 for human 184B5 cells to IC50 for human HN6 cells
- Type: toxicity
- EXPERIMENTAL PARAMETERS: 184B5 cells versus HN6 cells, read-out: Ratio IC50

{"COMPOUND": "COc1ccccc1CN1O[C@H](CO)C[C@@H]1c1ccc2ccc3cccnc3c2n1 (relative stereo)", "selectivity ratio": 51.4}

* * *

- METHOD NOTES: Selectivity index, ratio of IC50 for human 184B5 cells to IC50 for human HeLa cells
- Format: toxicity
- EXPERIMENTAL PARAMETERS: 184B5 cells versus HeLa cells, read-out: Ratio IC50
OUTCOME MEASURE: selectivity ratio

{"MOLECULE": "COc1ccccc1CN1O[C@H](CO)C[C@@H]1c1ccc2ccc3cccnc3c2n1 (relative stereo)", "QUANTITATIVE RESULT": 24.3}
